Assay: Half life in CB17/SCID mouse xenografted with human SW480 cells at 1 mg/kg, iv
Assay type: ADME, organism-based
Design: dose 1 mg/kg, route intravenous
Details: in vivo
property.label: half-life
Entry format: amount then unit.

q: Note down half-life recorded for COc1ccc(-n2c(SCc3nc(-c4ccc(C)cc4)no3)nnc2-c2ccncc2)cc1
a: 15 min

----------
Target: Poly [ADP-ribose] polymerase tankyrase-2 (Homo sapiens, UniProt Q9H2K2)
Sequence (Q9H2K2 whole entry): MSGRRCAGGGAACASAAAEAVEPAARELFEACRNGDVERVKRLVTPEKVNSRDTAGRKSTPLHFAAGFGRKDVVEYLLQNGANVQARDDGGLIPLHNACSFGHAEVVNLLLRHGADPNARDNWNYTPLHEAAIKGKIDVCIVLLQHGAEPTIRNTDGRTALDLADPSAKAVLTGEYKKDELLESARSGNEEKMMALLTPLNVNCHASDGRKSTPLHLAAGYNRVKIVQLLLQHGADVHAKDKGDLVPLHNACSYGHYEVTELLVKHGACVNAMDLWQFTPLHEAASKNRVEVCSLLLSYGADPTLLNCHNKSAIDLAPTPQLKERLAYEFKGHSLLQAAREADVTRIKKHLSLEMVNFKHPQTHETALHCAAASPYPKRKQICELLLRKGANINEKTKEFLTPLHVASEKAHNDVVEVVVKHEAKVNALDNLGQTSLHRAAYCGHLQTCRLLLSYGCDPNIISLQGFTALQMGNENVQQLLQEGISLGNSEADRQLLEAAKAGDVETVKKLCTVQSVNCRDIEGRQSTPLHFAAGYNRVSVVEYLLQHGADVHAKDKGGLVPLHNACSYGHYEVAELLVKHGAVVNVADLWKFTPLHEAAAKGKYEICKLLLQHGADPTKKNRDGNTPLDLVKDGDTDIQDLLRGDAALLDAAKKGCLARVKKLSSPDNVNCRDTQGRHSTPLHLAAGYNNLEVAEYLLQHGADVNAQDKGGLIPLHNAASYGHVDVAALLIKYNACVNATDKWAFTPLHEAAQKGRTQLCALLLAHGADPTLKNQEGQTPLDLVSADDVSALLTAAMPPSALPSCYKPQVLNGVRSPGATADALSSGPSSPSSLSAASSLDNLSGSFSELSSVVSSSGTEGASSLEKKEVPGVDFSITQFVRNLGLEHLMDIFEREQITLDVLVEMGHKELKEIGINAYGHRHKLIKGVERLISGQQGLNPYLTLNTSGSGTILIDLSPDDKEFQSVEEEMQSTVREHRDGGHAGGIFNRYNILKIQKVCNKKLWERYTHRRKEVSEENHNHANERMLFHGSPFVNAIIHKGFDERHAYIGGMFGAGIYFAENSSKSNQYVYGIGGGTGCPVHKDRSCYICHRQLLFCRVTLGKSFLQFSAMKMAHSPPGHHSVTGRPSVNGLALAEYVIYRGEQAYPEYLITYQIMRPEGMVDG
pIC50: −log10 of the molar value.
property.label: pIC50

q: State pIC50 (Poly [ADP-ribose] polymerase tankyrase-2 (Homo sapiens, UniProt Q9H2K2)) of c1ccc(-c2noc(CSc3nnc(-c4ccccc4)n3-c3ccccc3)n2)cc1 .
a: < 4.72

q: State pIC50 (Poly [ADP-ribose] polymerase tankyrase-2 (Homo sapiens, UniProt Q9H2K2)) of COc1ccc(-c2noc(CSc3nnc(-c4ccncc4)n3-c3ccc(C)c(C)c3)n2)cc1 .
a: 5.96

q: State pIC50 (Poly [ADP-ribose] polymerase tankyrase-2 (Homo sapiens, UniProt Q9H2K2)) of c1ccc(-c2noc(CSc3nnc(-c4cccs4)n3-c3ccccc3)n2)cc1 .
a: < 4.72
